Hey, just so you know, these numbers are from PubChem BioAssay (Tox21).

Test details: A CellTox Green Cytotoxicity Assay to monitor cytotoxicity in HEK293 cells - 24 hour (AID 1224875); further: nearly all actives have a fitted effect of over 45% in size
Run parameters: CellTox Green fluorescence; series mostly up to 76.8 µM
Inconclusive results are not listed. The source made the active and inactive calls. The call rests on the fitted dose curve; in most records, active means well fitted activation curve with a large enough effect in the repeat runs; inconclusive means weak or mixed curves; inactive means flat fitted curve, though single readings scatter.
Possible outcomes: active, inactive

Smiles repr	Category
CC(C)(C)c1ccc(C(=O)CCCN2CCC(OC(c3ccccc3)c3ccccc3)CC2)cc1	active
CC[C@H]1O[C@]2(CC[C@@H]1C)C[C@@H]1C[C@@H](C/C=C(\C)C[C@@H](C)/C=C/C=C3\CO[C@@H]4[C@H](O)C(C)=C[C@@H](C(=O)O1)[C@]34O)O2	active
CCCCCCCCCCCC[N+](C)(C)CCCCCCCCCCCC	active
O=C(O)c1cc(O)c2c(c1)C(=O)c1cccc(O)c1C2=O	inactive

====

Test details: qHTS assay to identify small molecule agonists of the progesterone receptor (PR) signaling pathway - cell viability counter screen (AID 1346799); further: nearly all actives have a fitted effect of over 45% in size
Run parameters: PR-UAS-bla HEK293T viability, CellTiter-Glo luminescence, 16 h; series mostly up to 92.4 µM
Inconclusive results are not listed. The source made the active and inactive calls. Calls follow the shape of the full dose curve.
Possible outcomes: active, inactive

Molecule	Category
CNC(=O)c1ccccc1	inactive
Cc1cc(O)c(C(C)(C)C)cc1Sc1cc(C(C)(C)C)c(O)cc1C	active
CCCC(C)c1ccccc1O (stereo not given)	inactive
Oc1ccc2c(c1)-c1ccccc1C2	inactive
NC(=O)NS(=O)(=O)c1ccc(N)cc1	inactive

====

Test details: A CellTox Green Cytotoxicity Assay to monitor cytotoxicity in HEK293 cells - 32 hour (AID 1224881); further: nearly all actives have a fitted effect of over 40% in size
Run parameters: CellTox Green fluorescence; series mostly up to 76.8 µM
Results filed as inconclusive are left out. Activity calls are given as the source filed them. The call rests on the fitted dose curve; in most records, active means well fitted activation curve with a large enough effect in the repeat runs; inconclusive means weak or mixed curves; inactive means flat fitted curve, though single readings scatter.
Possible outcomes: active, inactive

Compound	Category
CC1=C(/C=C/C(C)=C/C=C/C(C)=C/C=O)C(C)(C)CCC1	active
C/C=C(\C)C(=O)OCc1ccccc1	inactive
NC(=O)N1C(=O)C(C(=O)c2cc(Cl)cs2)c2cc(F)c(Cl)cc21 (stereo not given)	inactive
C1CCCC1	inactive
CCC1=C[C@@H]2CN(C1)Cc1c([nH]c3ccccc13)[C@@](C(=O)OC)(c1cc3c(cc1OC)N(C)[C@H]1[C@@](O)(C(=O)OC)[C@H](OC(C)=O)[C@]4(CC)C=CCN5CC[C@]31[C@@H]54)C2	inactive
C[n+]1cc2c3c(ccc2c2ccc4cc5c(cc4c21)OCO5)OCO3	active
Cc1onc(-c2ccccc2Cl)c1C(=O)N[C@@H]1C(=O)N2[C@@H]1SC(C)(C)[C@@H]2C(=O)O	inactive
CCOC(=O)O[C@]1(C(=O)OCCl)CC[C@H]2[C@@H]3CCC4=CC(=O)C=C[C@]4(C)[C@H]3[C@@H](O)C[C@@]21C	inactive
CCCCCCCCCCCCc1ccc(O)cc1	active
CCN(Cc1cccnc1)C(=O)c1cccc(Cl)c1[C@]1(C)C(=O)N(Cc2ccc(OC)cc2OC)c2ccc(Cl)cc21	inactive
Oc1ccc(N=Nc2ccccc2)cc1	active
CCCCCCCCCCCCCCCCCC[N+](C)(C)C	active
C=CC(=O)OCC(CO)(COCC(COC(=O)C=C)(COC(=O)C=C)COC(=O)C=C)COC(=O)C=C	active
COc1ccc(-c2ccc3cc(C(=O)O)ccc3c2)cc1C12CC3CC(CC(C3)C1)C2	inactive
CCCCCOC(=O)CCCC	inactive
CCCCCCCCNC(C)C(O)c1ccc(SC(C)C)cc1 (stereo not given)	active
CC(=O)SC[C@@H](Cc1ccccc1)C(=O)NCC(=O)OCc1ccccc1	inactive
O=C1c2ccccc2Cc2ccccc21	inactive
CCCCCCCCCCCCCCCCCC[N+](C)(C)Cc1ccccc1	active
CCCC(=O)OC[C@@H](OC(=O)CCC)[C@@H](OC(=O)CCC)[C@H](Cn1c2nc(=O)[nH]c(=O)c-2nc2cc(C)c(C)cc21)OC(=O)CCC	active
CCCC/C=C/CCCCO	inactive
C=C(C)C(=O)OCC(O)COc1ccc(C(C)(C)c2ccc(OCC(O)COC(=O)C(=C)C)cc2)cc1 (stereo not given)	inactive
CCCCCCCCCCCCCCCS(=O)(=O)Oc1ccccc1	inactive
CCN(C(=O)c1cc(C)cc(OC[C@H](C)Nc2ccncc2)c1)C(C)C	inactive
CCCN(CCC)C(=O)C(CCC(=O)OCCCN1CCN(CCOC(=O)Cc2c(C)n(C(=O)c3ccc(Cl)cc3)c3ccc(OC)cc23)CC1)NC(=O)c1ccccc1 (stereo not given)	inactive

====

Test details: qHTS assay to identify small molecule antagonists of the estrogen related receptor signaling pathway with the pleiotropic PPARgamma coactivator (PGC) from Tox21 10K library - cell viability counter screen (AID 1224840); further: nearly all actives have a fitted effect of over 40% in size
Run parameters: PGC/ERR reporter cells viability, CellTiter-Fluor, 17.5 h; series mostly up to 92.4 µM
Records with an inconclusive call do not appear. Active and inactive are the calls of the source. Calls follow the shape of the dose curve; as a rule, active = well fitted cell-killing curve with a large enough effect in the repeat runs (not every such curve was filed as active); inconclusive = weak or mixed curves, or effect the other way; inactive = no such curve, though single readings can be large or run the other way.
Possible outcomes: y = active, n = inactive

Molecule	Category
COCCCC/C(=N\OCCN)c1ccc(C(F)(F)F)cc1	n
N#CSc1ccc(N)c([N+](=O)[O-])c1	y
CCCCCCCCOc1ccccc1C(=O)Nc1ccc(C(=O)OCC[N+](C)(CC)CC)cc1	n
Nc1ccc2cc(S(=O)(=O)O)cc(O)c2c1N=Nc1ccccc1C(F)(F)F	n
NC(=O)NS(=O)(=O)c1ccc(N)cc1	n
CCc1cc(Cc2cc(CC)cc(C(C)(C)C)c2O)c(O)c(C(C)(C)C)c1	y
CC(C)=CCOc1ccc(/C=C/C(=O)c2ccc(OCC=C(C)C)cc2OCC(=O)O)cc1	n
CCCC(C)c1ccccc1O (stereo not drawn)	n

====

Test details: qHTS assay to identify small molecule antagonists of the progesterone receptor (PR) signaling pathway - cell viability counter screen (AID 1346798); further: nearly all actives have a fitted effect of over 50% in size
Run parameters: PR-UAS-bla HEK293T viability, CellTiter-Glo luminescence, 16 h; series mostly up to 92.4 µM
Records with an inconclusive call do not appear. Calls of active or inactive are those of the source. The call rests on the fitted dose curve; in most records, active means well fitted cell-killing curve with a large enough effect in the repeat runs; inconclusive means weak or mixed curves, or effect the other way; inactive means no such curve, though single readings can be large or run the other way.
Possible outcomes: active, inactive

Compound	Category
C[C@@H]1C[C@H]2[C@@H]3CCC4=CC(=O)C=C[C@]4(C)[C@@]3(Cl)[C@@H](O)C[C@]2(C)[C@@]1(OC(=O)c1ccco1)C(=O)CCl	inactive
CC(=O)N1CCN(c2ccc(OC[C@H]3CO[C@](Cn4ccnc4)(c4ccc(Cl)cc4Cl)O3)cc2)CC1	active
CSc1ccc(C(=O)c2[nH]c(=O)[nH]c2C)cc1	inactive
CCc1cc(SCc2sc(-c3ccc(C(F)(F)F)cc3)nc2CN2CCN(c3ccc(OC)cc3)CC2)ccc1OCC(=O)O	active
Cc1cccc(CN2CCN(C(c3ccccc3)c3ccc(Cl)cc3)CC2)c1 (stereo not given)	inactive
C/C=C(\C)C(=O)OCc1ccccc1	inactive
CCCCCCCCCCCC(=O)NCCCN(C)C	active
CC(C)=CCOc1ccc(/C=C/C(=O)c2ccc(OCC=C(C)C)cc2OCC(=O)O)cc1	inactive
Cc1onc(-c2ccccc2Cl)c1C(=O)N[C@@H]1C(=O)N2[C@@H]1SC(C)(C)[C@@H]2C(=O)O	inactive
CN(C)[C@@H]1C(=O)C(C(N)=O)=C(O)[C@@]2(O)C(=O)C3=C(O)c4c(O)cccc4C[C@H]3C[C@@H]12	inactive
CC1=NC(C)OC1C (stereo not given)	inactive
CS(=O)(=O)CCNCc1ccc(-c2ccc3ncnc(Nc4ccc(OCc5cccc(F)c5)c(Cl)c4)c3c2)o1	active
N=C1N=C(N)c2cc3ccccc3cc21	active
C1CCCC1	inactive
CCC(C)(C)C1CCCCC1OC(C)=O (stereo not given)	inactive

====

Test details: qHTS assay to identify small molecule agonists of the estrogen related receptor signaling pathway with the pleiotropic PPARgamma coactivator (PGC) from Tox21 10K library (AID 1224842); further: nearly all actives have a fitted effect of over 15% in size
Run parameters: PGC/ERR reporter cell line, luciferase ONE-Glo, 18 h; series mostly up to 92.4 µM
Results filed as inconclusive are left out. The source made the active and inactive calls. The call rests on the fitted dose curve; in most records, active means well fitted activation curve with a large enough effect in the repeat runs; inconclusive means weak or mixed curves, or effect the other way; inactive means no such curve, though single readings can be large or run the other way.
Possible outcomes: true (active), false (inactive)

Compound	Category
OCCN(CCO)c1nc(N2CCCCC2)c2nc(N(CCO)CCO)nc(N3CCCCC3)c2n1	false
Cc1oc(-c2ccccc2)nc1CCC(=O)c1ccc(CC2SC(=O)NC2=O)cc1 (stereo unspecified)	false
Cc1cccc(N(C)C(=S)Oc2ccc3c(c2)C2CCC3C2)c1 (stereo unspecified)	false
O=C(O)c1ccc(Cl)c(Cl)c1	false
N#CC1(c2ccc(F)cc2)CCC(=O)CC1	false
Clc1ccc2cc3ccccc3cc2c1	true
CC(C)(C)C1CCC(CC2=C(O)c3ccccc3C(=O)C2=O)CC1 (stereo unspecified)	false
COc1ccc(-c2ccc3cc(C(=O)O)ccc3c2)cc1C12CC3CC(CC(C3)C1)C2	false
N/C(=N\N=C\c1ccc(Cl)cc1)N/N=C/c1ccc(Cl)cc1	false
CCC1=C[C@@H]2CN(C1)Cc1c([nH]c3ccccc13)[C@@](C(=O)OC)(c1cc3c(cc1OC)N(C)[C@H]1[C@@](O)(C(=O)OC)[C@H](OC(C)=O)[C@]4(CC)C=CCN5CC[C@]31[C@@H]54)C2	false
O=C1C=CC(=O)N1	false
Fc1ccc(C(c2ccc(F)cc2)N2CCN(C/C=C/c3ccccc3)CC2)cc1	false
CCN(C(=O)N(CC)c1ccccc1)c1ccccc1	false
CC[C@@]1(O)C(=O)OCc2c1cc1n(c2=O)Cc2cc3c(CN(C)C)c(O)ccc3nc2-1	false
COc1c(C)c2c(c(O)c1C/C=C(\C)CCC(=O)O)C(=O)OC2	false
Oc1ccc2cc(SSc3ccc4cc(O)ccc4c3)ccc2c1	false
CCCCCCCCCCCCc1ccc(O)cc1	false
Cc1cc(O)c(C(C)(C)C)cc1C(C)(C)C	false
Cc1ccc(-n2nc(C(C)(C)C)cc2NC(=O)Nc2ccc(OCCN3CCOCC3)c3ccccc23)cc1	false
CCCCCCCCNC(C)C(O)c1ccc(SC(C)C)cc1 (stereo unspecified)	false
CCCCC(CC)COP(=O)(O)OCC(CC)CCCC (stereo unspecified)	false
Nc1ccc2cc(S(=O)(=O)O)cc(O)c2c1N=Nc1ccccc1C(F)(F)F	false
O=C(NO)C1(NS(=O)(=O)c2ccc(Oc3ccc(F)cc3)cc2)CCOCC1	false
Cc1cc(O)c2ccccc2c1O	false
CC/C(=C(\c1ccc(O)cc1)c1ccc(OCCN(C)C)cc1)c1ccccc1	false
COc1ccc(CN2CCN(C(c3ccc(F)cc3)c3ccc(F)cc3)CC2)c(OC)c1OC	false
Cc1cccc2c1cc1ccc3cccc4ccc2c1c34	false
Cc1onc(-c2c(Cl)cccc2Cl)c1C(=O)N[C@@H]1C(=O)N2[C@@H]1SC(C)(C)[C@@H]2C(=O)O	false
CCOc1nc2cccc(C(=O)OC(C)OC(=O)OC3CCCCC3)c2n1Cc1ccc(-c2ccccc2-c2nn[nH]n2)cc1 (stereo unspecified)	false
CCCCCCCC[P+](CCCCCCCC)(CCCCCCCC)CCCCCCCC	false
C[C@@H]1C[C@H]2[C@@H]3CCC4=CC(=O)C=C[C@]4(C)[C@@]3(Cl)[C@@H](O)C[C@]2(C)[C@@]1(OC(=O)c1ccco1)C(=O)CCl	false
COc1cc(-c2nc(NC(=O)c3cc4cc(C)cc(C)c4n3CC(=O)O)sc2CCC2CCCCC2)c(OC)cc1Cl	false
NNc1nc(-c2ccccc2)cs1	false
COc1cc(-c2ccc(N=C=O)c(OC)c2)ccc1N=C=O	false
CCC(C)(C)C1CCCCC1OC(C)=O (stereo unspecified)	false
CCCCC(CC)COC(=O)c1ccccc1C(=O)O (stereo unspecified)	false
